Test system: MS2 coat protein
Assay: apparent KD of MS2 coat protein; designed switch direction (-1 OFF switch, 1 ON switch): -1; higher = weaker reporter binding
Conditions: Eterna round: R95; input ligand: FMN 200 uM
Readout name: apparent KD of MS2 coat protein
# answer = value followed by unit

As a guide, the following entries are already answered.
sequence_string="UAAUACAUCUAUGGGAGUAACAUGAGGAUCACCCAUGUAUGUCUUGUUUUUUGUUCGUCAUAGACUUUCUGAUCAGU [JR_SV3TOV1_Sub029] (puzzle: Sensor v3, turn-off variant 1)" readout_name="apparent KD of MS2 coat protein" assay_value="47.9 nM"
sequence_string="UUUAAUUUUUUUUUUUUACAAGCUUUUUGCUCGUCUUAUACAUGAGGAUCACCCAUGUAAGUGAGGGAUAAAUUAUC [JMF 40] (puzzle: Sensor v3, turn-off variant 2)" readout_name="apparent KD of MS2 coat protein" assay_value="15.6 nM"
sequence_string="UAGAUGCUCAGGGAGUGUGACAUGAGGAUCACCCAUGUGGUGGUAGGGAACAAGCUUUUUGCACGUACUUAUGAGUA [JR_SV3TOV1_Sub007] (puzzle: Sensor v3, turn-off variant 1)" readout_name="apparent KD of MS2 coat protein" assay_value="64.9 nM"

Each sequence below has a reported value. Please supply its apparent KD of MS2 coat protein.
1. AAAUACAAGUAGAGAUUCUACAUGAGGAUCACCCAUGUGCUCGUCUUAUAAAGUACUAUCACGAAAGUGAUAGUACA [Sensor 3, v1 - 37] (puzzle: Sensor v3, turn-off variant 1)
2. GAGUGACAUGAGGAUCACCCAUGUGAGGAUAUCCGAUGGACCAAAUUAACAAUAGAAGGGAGAAGGCACAUAAA [Exclusion 1 V7] (puzzle: Exclusion 1)

1. 14.2 nM
2. 162 nM

###

For each record, write down the corresponding apparent KD of MS2 coat protein.
Test system: MS2 coat protein
Test: apparent KD of MS2 coat protein; designed switch direction (-1 OFF switch, 1 ON switch): -1; higher = weaker reporter binding
Settings: input ligand: none

sequence_string="UUUUUAUAUGAAGGAUAUACUUAACAUGAGGAUCACCCAUGUGGUGUUGUGAGUGAGUGAGUUUAGUAGAAGGUCAAUUCUCUU [JMF's solution 81] (Eterna round: R96, puzzle: Exclusion NG 2)" assay_value="492 nM"
sequence_string="UUAAUUAAUUAUAUAAGAUCACAUGAGGAUCACCCAUGUAUAUAGGAUAUCAGCUCGUGUAGAGCUGAGAAGGAUAUACAAUAU [ExNG3/3-B3] (Eterna round: R96, puzzle: Exclusion NG 3)" assay_value="175 nM"
sequence_string="AUUUUAGAAGGAUAUUGACCGGUGGACAUGAGGAUCACCCAUGUCGUCCUGCCCAUUCCGUAAGAAGGUCUAGCGU [Eternabot (L1) Solution 96] (Eterna round: R97, puzzle: Exclusion 5)" assay_value="24.8 nM"

Each sequence below has a reported value. Please supply its apparent KD of MS2 coat protein.
1. GAAUACAGAGGAUAUGCGUAAUAGGUAGUAAGAUAUAUAUGACAUGAGGAUCACCCAUGUAGAAGGCUGAGAUA [EX2 #1] (Eterna round: R97, puzzle: Exclusion 2)
2. CUAUAUUUAGGAUAUGUUCGGCUAGACAUGAGGAUCACCCAUGUGAGCCUAGGAGCAGCCACAGAAGGGAGUAUGU [Eternabot (L2) Solution 62] (Eterna round: R97, puzzle: Exclusion 5)

1. 30.5 nM
2. 32.8 nM
